Reported viability, T/C values for the following compounds.
tested on: 323965-272-R-J2-PDC complex spheroid viability; assay: Anticancer human tumor 323965-272-R-J2-PDC patient-derived pancreatic carcinoma cell line growth inhibition [CLK]; conditions: second compound 1 µM; first compound 3.16 µM; active compounds read low;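 further: spheroids exposed to agents for seven days before readout; percent of DMSO vehicle control wells so 100% = untreated growth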
valueType: viability, T/C

compound="CC1COCCN1c1cc(C2(S(C)(=N)=O)CC2)nc(-c2ccnc3[nH]ccc23)n1 (stereo not given) + CNC(=O)c1ccc(Nc2nc(OC3CCCC3)c3c(-c4ccc5nc(C)oc5c4)c[nH]c3n2)c(OC)c1" valuetype="viability, T/C" result=24%
compound="Nc1ccn(C2OC(CO)C(O)C2(F)F)c(=O)n1 (stereo not given) + CNC(=O)c1ccc(Nc2nc(OC3CCCC3)c3c(-c4ccc5nc(C)oc5c4)c[nH]c3n2)c(OC)c1" valuetype="viability, T/C" result=17.8%
compound="Nc1ccn(C2OC(CO)C(O)C2(F)F)c(=O)n1 (stereo not given) + CN1CCN(c2cc(C(=O)Nc3cc4cc(-c5cnn(C)c5)ccc4cn3)ccn2)CC1" valuetype="viability, T/C" result=3.52%
compound="CC(CO)NC(=O)c1cc(-c2ccc(Cl)cc2)nn(-c2cnn(C)c2)c1=O (stereo not given) + CNC(=O)c1ccc(Nc2nc(OC3CCCC3)c3c(-c4ccc5nc(C)oc5c4)c[nH]c3n2)c(OC)c1" valuetype="viability, T/C" result=51.6%
compound="CCCS(=O)(=O)Nc1ccc(F)c(C(=O)c2c[nH]c3ncc(-c4ccc(Cl)cc4)cc23)c1F + CNC(=O)c1ccc(Nc2nc(OC3CCCC3)c3c(-c4ccc5nc(C)oc5c4)c[nH]c3n2)c(OC)c1" valuetype="viability, T/C" result=60.9%

Cited source for all entries: PubChem BioAssay AID2060619
